run_description: in vivo
experimental_setup: mouse, ip
Each item that follows carries a reported LD50.
The reply should be a number in mg/kg, with the unit left off.

CCOC(=O)C1=C(CSCC(N)c2ccccc2)NC(C)=C(C(=O)OC)C1c1cccc([N+](=O)[O-])c1 (centres unmarked)    46
CCOC(=O)C1=C(CSCCN)NC(C)=C(C(=O)OC)C1c1ccc(F)cc1 (centres unmarked)    28
CCOC(=O)C1=C(CSCCN)NC(C)=C([N+](=O)[O-])C1c1cccc([N+](=O)[O-])c1 (centres unmarked)    108
CCOC(=O)C1=C(C)NC(CSCCN)=C(C(=O)OCC)C1c1ccccc1Cl (centres unmarked)    9
CCOC(=O)C1=C(CSCCN)NC(C)=C(C(=O)OCCN(C)Cc2ccccc2)C1c1cccc([N+](=O)[O-])c1 (centres unmarked)    32

q: Could you please provide reported LD50 for CCOC(=O)C1=C(CSCCN)NC(C)=C(C(=O)OC)C1c1ccccc1C(F)(F)F (centres unmarked) ? Thanks!
a: 2

q: Could you please provide reported LD50 for CCOC(=O)C1=C(C)NC(CSCCN)=C(C(=O)OCC)C1c1cccc([N+](=O)[O-])c1 (centres unmarked) ? Thanks!
a: 20

q: Could you please provide reported LD50 for CCOC(=O)C1=C(CSCCN)NC(C)=C(C(=O)OC)C1c1ccccc1 (centres unmarked) ? Thanks!
a: 31

====

Each item that follows carries a reported LD50.
run_description: in vivo
experimental_setup: mouse, po
The reply should be a number in mg/kg, with the unit left off.

CCOC(=O)C1=C(CSCCNC=O)NC(C)=C(C(=O)OC)C1c1ccccc1SC (centres unmarked)    90
CCOC(=O)C1=C(CSCCN)NC(C)=C(C(=O)OC)C1c1ccccc1[N+](=O)[O-] (centres unmarked)    3

q: Could you please provide reported LD50 for CCOC(=O)C1=C(CSCCN)NC(C)=C(C(=O)OC)C1c1cccc([N+](=O)[O-])c1 (centres unmarked) [Compound 13] ? Thanks!
a: 21

q: Could you please provide reported LD50 for CCOC(=O)C1=C(CSCCN)NC(C)=C(C(=O)OC)C1c1cccc(C#N)c1 (centres unmarked) ? Thanks!
a: 34

====

Each item that follows carries a reported LD50 in mice, OS.
Test system: mice
run_description: acute toxicity in mice (LD50, os and i.p.)
experimental_setup: mouse, in vivo, po
The reply should be a number in mg/kg, with the unit left off.

CCOC(=O)C1=C(CSCC2CCCN2)NC(C)=C(C(=O)OC)C1c1cccc([N+](=O)[O-])c1 (stereo not shown) [Compound 16a]    17

q: Given CCOC(=O)C1=C(CSCC2CCCN2)NC(C)=C(C(=O)OC)C1c1cccc([N+](=O)[O-])c1 (stereo not shown) [Compound 16b] , report its LD50 in mice, OS on mice.
a: 39

q: Given CCOC(=O)C1=C(CSCC2CCCN2)NC(C)=C(C(=O)OC)C1c1cccc([N+](=O)[O-])c1 (stereo not shown) [Compound 16c] , report its LD50 in mice, OS on mice.
a: 55

q: Given CCOC(=O)C1=C(CSCC2CCCN2)NC(C)=C(C(=O)OC)C1c1cccc([N+](=O)[O-])c1 (stereo not shown) [Compound 16d] , report its LD50 in mice, OS on mice.
a: 1000
